# measurement_target: Human 11β HSD1 (Homo sapiens)
# Construct: human hepatic microsomes were obtained from XenoTech, product H0610/Lot 0210078; tissue XenoTech H0610/Lot 0210078; host or cells: human liver (hepatic microsomes)
# Sequence (P28845 whole entry): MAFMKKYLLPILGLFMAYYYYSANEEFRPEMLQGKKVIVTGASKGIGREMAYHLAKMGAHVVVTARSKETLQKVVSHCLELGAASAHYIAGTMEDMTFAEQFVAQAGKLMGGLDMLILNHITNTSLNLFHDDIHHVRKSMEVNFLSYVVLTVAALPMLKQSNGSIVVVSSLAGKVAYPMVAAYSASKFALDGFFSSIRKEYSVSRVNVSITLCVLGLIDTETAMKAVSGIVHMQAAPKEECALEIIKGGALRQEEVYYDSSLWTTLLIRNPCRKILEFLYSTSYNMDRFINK
# test_protocol: biochemical
# Type: biochemical
# condition_parameters: read-out: % inhibition of Human 11β HSD1 @10 μM typical sd ± 5% N = 2
Entries and their inhibition at 10 µM
property_measured: inhibition at 10 µM (%)

>  <structure>
CCCc1ccc(C(=O)Nc2ccc3sc(C)nc3c2)cc1

>  <property_measured>
inhibition at 10 µM

>  <measured>
53.7

$$$$
>  <structure>
O=S(=O)(NCCO)c1ccc(NS(=O)(=O)c2ccc(Cl)cc2Cl)cc1

>  <property_measured>
inhibition at 10 µM

>  <measured>
36.4

$$$$
>  <structure>
Cc1nc2cc(CSc3cc(Cl)ccc3Cl)ccc2s1

>  <property_measured>
inhibition at 10 µM

>  <measured>
45.6

$$$$
>  <structure>
Cc1cc(NS(=O)(=O)c2cccc(Cl)c2C)no1

>  <property_measured>
inhibition at 10 µM

>  <measured>
23.2

$$$$
>  <structure>
CC(=O)Nc1ccc(S(=O)(=O)NNC(=O)CSc2ncnc3c(C)csc23)cc1

>  <property_measured>
inhibition at 10 µM

>  <measured>
51.3

$$$$
>  <structure>
COc1cc(C)c(S(=O)(=O)Nc2ccc(S(=O)(=O)NCCOS(=O)(=O)c3c(C)cc(OC)c(C)c3C)cc2)c(C)c1C

>  <property_measured>
inhibition at 10 µM

>  <measured>
31.8

$$$$
>  <structure>
Cc1nc2cc(NC(=O)c3cc(Cl)cc(Cl)c3)ccc2s1

>  <property_measured>
inhibition at 10 µM

>  <measured>
43.5

$$$$
>  <structure>
Cc1cnc2cc(NS(=O)(=O)c3cccc(Cl)c3C)ccc2n1

>  <property_measured>
inhibition at 10 µM

>  <measured>
60.8

$$$$
>  <structure>
CC(=O)Nc1nsc2ccc(NS(=O)(=O)c3cccc(Cl)c3C)cc12

>  <property_measured>
inhibition at 10 µM

>  <measured>
31

$$$$
>  <structure>
CCCc1ccc(S(=O)(=O)Nc2ccc3oncc3c2)cc1

>  <property_measured>
inhibition at 10 µM

>  <measured>
25.4

$$$$
>  <structure>
COc1ccc(S(=O)(=O)Nc2ccc(S(=O)(=O)NCCOS(=O)(=O)c3ccc(OC)cc3)cc2)cc1

>  <property_measured>
inhibition at 10 µM

>  <measured>
34.5

$$$$
>  <structure>
Cc1c(Cl)cccc1S(=O)(=O)Nc1ccc2c(C)cc(=O)oc2c1

>  <property_measured>
inhibition at 10 µM

>  <measured>
61.2

$$$$
>  <structure>
COC(=O)c1cc2cc(NS(=O)(=O)c3cccc(Cl)c3C)ccc2s1

>  <property_measured>
inhibition at 10 µM

>  <measured>
49.6

$$$$
>  <structure>
COc1ccc(S(=O)(=O)Nc2ccc(S(=O)(=O)Nc3cc(C)on3)cc2)cc1

>  <property_measured>
inhibition at 10 µM

>  <measured>
53

$$$$
>  <structure>
Cc1c(Cl)cccc1S(=O)(=O)Nc1ccc2nccnc2c1

>  <property_measured>
inhibition at 10 µM

>  <measured>
55.5

$$$$
>  <structure>
Cc1c(Cl)cccc1S(=O)(=O)Nc1ccc2scc(C)c2c1

>  <property_measured>
inhibition at 10 µM

>  <measured>
64.6

$$$$
>  <structure>
Cc1c(Cl)cccc1S(=O)(=O)Nc1ccc2c(cnn2C)c1

>  <property_measured>
inhibition at 10 µM

>  <measured>
56

$$$$
>  <structure>
Cc1c(Cl)cccc1S(=O)(=O)Nc1ccc2c(c1)OCCO2

>  <property_measured>
inhibition at 10 µM

>  <measured>
73.3

$$$$
>  <structure>
CCCc1ccc(S(=O)(=O)Nc2ccc(OC)nc2)cc1

>  <property_measured>
inhibition at 10 µM

>  <measured>
54.6

$$$$
>  <structure>
Cc1ccc2cc(NS(=O)(=O)c3cc(Cl)ccc3Cl)ccc2n1

>  <property_measured>
inhibition at 10 µM

>  <measured>
36.6

$$$$
>  <structure>
CCCc1ccc(S(=O)(=O)Nc2ccc3nc(C)cnc3c2)cc1

>  <property_measured>
inhibition at 10 µM

>  <measured>
64.8

$$$$
>  <structure>
CCCc1ccc(S(=O)(=O)NCc2ccccn2)cc1

>  <property_measured>
inhibition at 10 µM

>  <measured>
37.6

$$$$
>  <structure>
COC(=O)c1cc2cc(NS(=O)(=O)c3cccc(Cl)c3C)ccc2o1

>  <property_measured>
inhibition at 10 µM

>  <measured>
33.1

$$$$
>  <structure>
Cc1cc(NS(=O)(=O)c2ccc(NS(=O)(=O)c3ccc(Cl)cc3Cl)cc2)no1

>  <property_measured>
inhibition at 10 µM

>  <measured>
37.1

$$$$
>  <structure>
CCCc1ccc(C(=O)N(C)c2ccc3sc(C)nc3c2)cc1

>  <property_measured>
inhibition at 10 µM

>  <measured>
71.4

$$$$
>  <structure>
CCCc1ccc(S(=O)(=O)Nc2ccc3nc(C)ccc3c2)cc1

>  <property_measured>
inhibition at 10 µM

>  <measured>
42.3

$$$$
>  <structure>
CCCc1ccc(S(=O)(=O)Nc2ccc3nccnc3c2)cc1

>  <property_measured>
inhibition at 10 µM

>  <measured>
58.1

$$$$
>  <structure>
Cc1cc(NS(=O)(=O)c2cc(Cl)ccc2Cl)no1

>  <property_measured>
inhibition at 10 µM

>  <measured>
42.9

$$$$
>  <structure>
COc1ccc(S(=O)(=O)Nc2ccc(S(=O)(=O)NCCO)cc2)cc1OC

>  <property_measured>
inhibition at 10 µM

>  <measured>
26.3

$$$$
>  <structure>
Cc1cc2cc(NS(=O)(=O)c3cccc(Cl)c3C)ccc2o1

>  <property_measured>
inhibition at 10 µM

>  <measured>
28.7

$$$$
>  <structure>
COc1cccc(NC(=O)Nc2ccc(S(=O)(=O)Nc3cc(C)on3)cc2)c1

>  <property_measured>
inhibition at 10 µM

>  <measured>
46.2

$$$$
>  <structure>
COc1ccc(S(=O)(=O)Nc2ccc(S(=O)(=O)Nc3nc(C)cc(C)n3)cc2)cc1OC

>  <property_measured>
inhibition at 10 µM

>  <measured>
31.2

$$$$
>  <structure>
Cc1c(Cl)cccc1S(=O)(=O)Nc1ccc2c(c1)C(=O)N(C)C2=O

>  <property_measured>
inhibition at 10 µM

>  <measured>
54.1

$$$$
>  <structure>
COc1ccc(S(=O)(=O)Nc2ccc(S(=O)(=O)NCCO)cc2)cc1

>  <property_measured>
inhibition at 10 µM

>  <measured>
48.5

$$$$
>  <structure>
Cc1c(Cl)cccc1S(=O)(=O)Nc1ccc2occ(C)c2c1

>  <property_measured>
inhibition at 10 µM

>  <measured>
59.2

$$$$
>  <structure>
Cc1noc2ccc(NS(=O)(=O)c3cc(Cl)ccc3Cl)cc12

>  <property_measured>
inhibition at 10 µM

>  <measured>
23.6

$$$$
>  <structure>
CC(=O)Nc1ccc(S(=O)(=O)Nc2cc(C)on2)cc1Cl

>  <property_measured>
inhibition at 10 µM

>  <measured>
42

$$$$

====

# measurement_target: Human 11β HSD1 (Homo sapiens)
# Construct: human hepatic microsomes were obtained from XenoTech, product H0610/Lot 0210078; tissue XenoTech H0610/Lot 0210078; host or cells: human liver (hepatic microsomes)
# test_protocol: biochemical
# Format: biochemical
# condition_parameters: read-out: % inhibition of Human 11β HSD1 @10 μM typical sd ± 5% N = 2
Entries and their inhibition at 10 µM

>  <structure>
Cc1cc(NS(=O)(=O)c2ccc(N)c(Cl)c2)no1

>  <measurement_target>
Human 11β HSD1 (Homo sapiens)

>  <inhibition at 10 µM, %>
32.1

$$$$
>  <structure>
Cc1ccc2cc(NS(=O)(=O)c3cccc(Cl)c3C)ccc2n1

>  <measurement_target>
Human 11β HSD1 (Homo sapiens)

>  <inhibition at 10 µM, %>
20.7

$$$$
>  <structure>
Cc1c(Cl)cccc1S(=O)(=O)Nc1ccc2[nH]ncc2c1

>  <measurement_target>
Human 11β HSD1 (Homo sapiens)

>  <inhibition at 10 µM, %>
41.9

$$$$
>  <structure>
O=S(=O)(Nc1ccc2oncc2c1)c1cc(Cl)ccc1Cl

>  <measurement_target>
Human 11β HSD1 (Homo sapiens)

>  <inhibition at 10 µM, %>
27.5

$$$$
>  <structure>
Cc1c(Cl)cccc1S(=O)(=O)Nc1ccc2c(c1)-c1ccccc1C2=O

>  <measurement_target>
Human 11β HSD1 (Homo sapiens)

>  <inhibition at 10 µM, %>
62.6

$$$$
